Molecular target: von Willebrand factor full length (Homo sapiens, UniProt P04275 SEQ:764-2813)
Test: filter; 39% bound at 100 nM
Conditions: tags: Calbiochem 681300
measurement.type: Kd (nM)
A number alone suffices; assume nM.

Please give measured Kd of the following entry: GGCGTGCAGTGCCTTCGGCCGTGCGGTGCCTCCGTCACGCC (ssDNA, 2'-OMe at 40; 3'-idT) [ARC1233] 2

Please give measured Kd of the following entry: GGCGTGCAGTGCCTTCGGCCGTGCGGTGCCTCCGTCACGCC (ssDNA, 2'-OMe at 21; 3'-idT) [ARC1214] 3

Where do the numbers come from? From patent US20060264369.
